B1: CPN1 (parent)
chain: RGVRRTASTPTPDDKLFQKLAKVY

Variants of: B1
Assay: protein stability index of a GFP-peptide fusion (GPS, HEK-293T) (PSI 1-6); higher = more stable;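 note: lentivirally expressed fusions sorted by FACS into six bins by GFP to DsRed ratio, PSI derived from sequencing read proportions per bin multiplied by bin number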
Settings: c terminus: a fixed tail appended
measureName: protein stability index

{"columns": ["changes", "measuredResult"],
 "data": [
  ["F17Y", 2.28],
  ["K15T", 1.7],
  ["D13M", 2.59],
  ["Q18F", 1.43],
  ["A21W", 2.22],
  ["T9M", 1.45],
  ["F17I", 2.53],
  ["A7W", 2.59],
  ["D14K", 2.35],
  ["F17L", 2.15],
  ["Y24T", 3.64],
  ["K19D", 2.67],
  ["T6F", 2.07],
  ["Y24S", 2.72],
  ["S8E", 1.63],
  ["Q18E", 2.19],
  ["S8N", 2.1],
  ["A21H", 2.29],
  ["K19E", 2.54],
  ["P10T", 1.75],
  ["R5G", 1.7],
  ["D14N", 1.54],
  ["K22H", 1.98],
  ["D14V", 2.19],
  ["R5Y", 1.89],
  ["D14G", 2.78],
  ["K19R", 2.49],
  ["V3T", 2.89],
  ["S8K", 2.85],
  ["V3F", 2.24],
  ["D14Y", 1.48],
  ["Q18C", 2.6],
  ["D14S", 2.63],
  ["F17H", 2.63],
  ["V23T", 2.4]
]}
